// values below are reported Papp B→A at 1 h
System: MDR1 (human)
Experiment: Apparent permeability across basolateral to apical side in MDCK transfected with human MDR1 cells incubated for 1 hr by LC-MS analysis
Conditions: dog, MDCK-MDR1
State just the number; it will be interpreted in nm/s.

Sample records with Papp B→A at 1 h:
| molecule | study system | output unit | Papp B→A at 1 h |
| --- | --- | --- | --- |
| COc1ccc(Cc2ccc(C3=N/C(=C\NC4CCCCC4)C4=C3OCCO4)[nH]2)cc1 | MDR1 (human) | nm/s | 0.51 |
| COC(=O)[C@H]1CC[C@H](N/C=C2\N=C(c3ccc[nH]3)C3=C2CCCC3)CC1 | MDR1 (human) | nm/s | 11 |
| CCC1=C(C)/C(=C/NC23C[C@H]4C[C@@H](C2)C[C@@H](C3)C4)N=C1c1ccc(CC)[nH]1 | MDR1 (human) | nm/s | 0.27 |
| CCC1=C(CC)/C(=C/NC23C[C@H]4C[C@@H](C2)C[C@@H](C3)C4)N=C1c1ccc(-c2ccc(OC)cc2)[nH]1 | MDR1 (human) | nm/s | 0.16 |
| CCC1=C(CC)/C(=C/NC2CCCCCCC2)N=C1c1ccc(C)[nH]1 | MDR1 (human) | nm/s | 0.66 |

*Q* Please report the measured Papp B→A at 1 h for "CCC1=C(CC)/C(=C/NC2CCCCC2)N=C1c1ccc(CC)[nH]1" tested on MDR1 (human).
*A* 0.91

*Q* Please report the measured Papp B→A at 1 h for "CCc1ccc(C2=N/C(=C\NC3CCCCCC3)C3=C2OCCO3)[nH]1" tested on MDR1 (human).
*A* 4.7

*Q* Please report the measured Papp B→A at 1 h for "CCC1=C(CC)/C(=C/NC2CCCCC2)N=C1c1cc2cc(Cl)ccc2[nH]1" tested on MDR1 (human).
*A* 0.01

*Q* Please report the measured Papp B→A at 1 h for "C(/NC1CCCCC1)=C1/N=C(c2ccc[nH]2)C2=C1CCCC2" tested on MDR1 (human).
*A* 0.92

*Q* Please report the measured Papp B→A at 1 h for "CCC1=C(CC)/C(=C/NC2CCCCCC2)N=C1c1ccc(-c2ccccc2)[nH]1" tested on MDR1 (human).
*A* 0.02

*Q* Please report the measured Papp B→A at 1 h for "COc1ccc(C2=C(c3ccc(OC)cc3)/C(=C/NC34C[C@H]5C[C@@H](C3)C[C@@H](C4)C5)N=C2c2ccc[nH]2)cc1" tested on MDR1 (human).
*A* 0.05

*Q* Please report the measured Papp B→A at 1 h for "COC1=C(OC)/C(=C/NC2CCCCC2)N=C1c1ccc[nH]1" tested on MDR1 (human).
*A* 48

*Q* Please report the measured Papp B→A at 1 h for "CCC1=C(CC)/C(=C/NC2CCCCCCC2)N=C1c1ccc(Cc2ccc(OC)cc2)[nH]1" tested on MDR1 (human).
*A* 1.2

*Q* Please report the measured Papp B→A at 1 h for "C(/NC12C[C@H]3C[C@@H](C1)C[C@@H](C2)C3)=C1/N=C(c2ccc[nH]2)C2=C1OCCO2" tested on MDR1 (human).
*A* 8.5

*Q* Please report the measured Papp B→A at 1 h for "CCC1=C(C)/C(=C/NC2CCCCC2)N=C1c1ccc(CC)[nH]1" tested on MDR1 (human).
*A* 2.3

*Q* Please report the measured Papp B→A at 1 h for "CCc1ccc(C2=N/C(=C\NC3CCCCCC3)C(C)=C2C)[nH]1" tested on MDR1 (human).
*A* 0.35

*Q* Please report the measured Papp B→A at 1 h for "CCC1=C(CC)/C(=C/NC2CCCCCC2)N=C1c1ccc(-c2ccc(OC)cc2)[nH]1" tested on MDR1 (human).
*A* 0.13

*Q* Please report the measured Papp B→A at 1 h for "CCC1=C(C)/C(=C/NC2CCCCCCC2)N=C1c1ccc(C)[nH]1" tested on MDR1 (human).
*A* 0.4

*Q* Please report the measured Papp B→A at 1 h for "CCc1ccc(C2=N/C(=C\NC3CCCCC3)C3=C2CCCC3)[nH]1" tested on MDR1 (human).
*A* 2.2

###

// values below are reported half-life
Assay: Metabolic stability in human liver microsomes assessed as half life measured up to 60 mins by LC/MS analysis
Type: ADME, Microsome

| molecule | data value |
| --- | --- |
| CCC1=C(C)/C(=C/NC2CCCCC2)N=C1c1ccc(C)[nH]1 | > 60 min |
| CCC1=C(CC)/C(=C/NC2CCCCC2)N=C1c1ccc(Cc2ccc(OC)cc2)[nH]1 | > 60 min |
| CCC1=C(CC)/C(=C/NC2CCCCCCC2)N=C1c1ccc(CC)[nH]1 | > 60 min |
| COC(=O)[C@H]1CC[C@H](N/C=C2\N=C(c3ccc[nH]3)C3=C2CCCC3)CC1 | 16.7 min |
| CCC1=C(CC)/C(=C/NC2CCCCC2)N=C1c1ccc(C)[nH]1 | 58.7 min |
| CCC1=C(CC)/C(=C/NC2CCCCCCC2)N=C1c1ccc(-c2ccc(OC)cc2)[nH]1 | > 60 min |
| C(/NC1CCCCC1)=C1/N=C(c2ccc[nH]2)C2=C1OCCO2 | 13.1 min |
| [2H]C([2H])(C)c1ccc(C2=N/C(=C\NC3CCCCCC3)C(C)=C2C)[nH]1 | > 60 min |
| CCc1ccc(C2=N/C(=C\NC3CCCCCCC3)C(C)=C2C)[nH]1 | > 60 min |
| COc1ccc(Cc2ccc(C3=N/C(=C\NC4CCCCCC4)C4=C3CCCC4)[nH]2)cc1 | > 60 min |

*Q* For "CCC1=C(CC)/C(=C/NC2CCCCCC2)N=C1c1ccc(-c2ccc(OC)cc2)[nH]1" , write its half-life.
*A* 8.44 min

*Q* For "CCc1ccc(C2=N/C(=C\NC3CCCCC3)C3=C2CCCC3)[nH]1" , write its half-life.
*A* > 60 min

*Q* For "CCC1=C(CC)/C(=C/N[C@H]2CC[C@H](C(=O)OC)CC2)N=C1c1ccc[nH]1" , write its half-life.
*A* 14.4 min

*Q* For "CCC1=C(CC)/C(=C/NC23C[C@H]4C[C@@H](C2)C[C@@H](C3)C4)N=C1c1ccc(C)[nH]1" , write its half-life.
*A* 34.9 min

*Q* For "CCC1=C(CC)/C(=C/NC2CCCCC2)N=C1c1ccc(CC)[nH]1" , write its half-life.
*A* > 60 min

*Q* For "COC1=C(OC)/C(=C/NC23C[C@H]4C[C@@H](C2)C[C@@H](C3)C4)N=C1c1ccc[nH]1" , write its half-life.
*A* 17.6 min

*Q* For "CCC1=C(C)/C(=C/NC2CCCCCC2)N=C1c1ccc[nH]1" , write its half-life.
*A* 17.7 min

*Q* For "CCC1=C(C)/C(=C/NC2CCCCCCC2)N=C1c1ccc(CC)[nH]1" , write its half-life.
*A* 41.4 min

*Q* For "CCC1=C(CC)/C(=C/NC2CCCCCC2)N=C1c1ccc(C)[nH]1" , write its half-life.
*A* > 60 min

*Q* For "CCC1=C(C)/C(=C/NC2CCCCC2)N=C1c1ccc(CC)[nH]1" , write its half-life.
*A* 34.3 min

*Q* For "CCC1=C(CC)/C(=C/NC2CCCCC2)N=C1c1ccc(Br)[nH]1" , write its half-life.
*A* > 60 min

*Q* For "CCC1=C(CC)/C(=C/NC2CCCCCC2)N=C1c1ccc(Br)[nH]1" , write its half-life.
*A* > 60 min

*Q* For "CCC1=C(CC)/C(=C/NC2CCCCCCC2)N=C1c1ccc(Br)[nH]1" , write its half-life.
*A* > 60 min

*Q* For "CCC1=C(C)/C(=C/NC2CCCCCCC2)N=C1c1ccc(C)[nH]1" , write its half-life.
*A* 45.4 min

*Q* For "CCC1=C(CC)/C(=C/NC2CCCCC2)N=C1c1ccc(-c2ccc(OC)cc2)[nH]1" , write its half-life.
*A* > 60 min

*Q* For "CCC1=C(CC)/C(=C/NC2CCCCC2)N=C1c1ccc(-c2ccccc2)[nH]1" , write its half-life.
*A* > 60 min

###

Test: MRTlast in ICR-CD1 mouse plasma at 40 mg/kg, po
Type: ADME, organism-based
measurement label: MRT last (h)
State just the number; it will be interpreted in h.

*Q* For "CCC1=C(CC)/C(=C/NC2CCCCC2)N=C1c1ccc(C)[nH]1" , write its MRT last.
*A* 31.5

###

Assay: Apparent oral clearance in ICR-CD1 mouse liver at 40 mg/kg, po
Type: ADME, organism-based
measurement label: CL/F (mL/min/kg)
State just the number; it will be interpreted in mL/min/kg.

*Q* For "CCC1=C(CC)/C(=C/NC2CCCCC2)N=C1c1ccc(C)[nH]1" , write its CL/F.
*A* 10.8
